# subject.of.test: T1, human CLDN6, endogenously expressed on cancer cell lines (human, UniProt P56747 1-220)
# T1 construct: also called Endogenous CLDN6+; CLDN6 on ARK2, OVCA429, UMUC4 cells
# T1 sequence: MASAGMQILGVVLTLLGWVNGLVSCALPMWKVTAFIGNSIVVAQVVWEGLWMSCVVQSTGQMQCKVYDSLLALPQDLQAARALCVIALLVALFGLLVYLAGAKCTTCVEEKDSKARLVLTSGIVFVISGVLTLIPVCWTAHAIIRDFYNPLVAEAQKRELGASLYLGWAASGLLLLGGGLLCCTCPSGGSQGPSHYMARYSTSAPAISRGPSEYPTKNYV
# measurement.notes: FACS dose curve, labelled mAb, OVCA429 cells
Provide the reported pEC50 of each item.
Value format note: pEC50 is -log10 of concentration (mol/L); just state the number.

Exercise: Tell me its pEC50 given AB10 (antibody, V domains shown, Full-length IgG (ExpiCHO)) VH: QIQLVQSGPALKKPGETVKISCKASGYTFTDYSMHWIKQAPGKGLKWMGWISTETGEPTYADGFKGRFDFSLETSADTAYLSINNLTNEDTATYFCTRGLWSSFAYWGQGTLVTVSA VL: DVVMTQTPLSLPVSLGDQASISCRASQSLVHSNGNTYLHWFLQKPGQSPKLLIYKVSNRFSGVPDRFSGSGSRTDFTLKISRVEAEDLGVYFCSQITHVPYTFGGGTKLEIK as the entry.
Solution: 5.61

Exercise: Tell me its pEC50 given AB4 (antibody, V domains shown, Full-length IgG (ExpiCHO)) VH: QVQLQQSGAELARPGASVKMSCKASGYTFTSYTMHWIKQRPGQGQEWIGYINPSSTYTHYIKKFKDKATLTADKSSSTAYMQLRSLTSEDSAVYYCSRGELGGFAYWGQGTLVTVSA VL: DVVMTQTPLSLPVSLGDQASISCRSSQSLVHSDGNTYLNWYLQKPGQSPKLLIYKVSNRFSGVPDRFSGSGSGTDFTLKIRRVEAEDLGVYFCSQSTHVPYTFGGGTKLEIK as the entry.
Solution: 6.77
